Where do these numbers come from? They come from patent US20250282866A1.

- ASSAY TARGET: T1, human TREM2 (human, UniProt Q9NZC2 19-174, limits assumed)
- T1 construct: also called triggering receptor expressed on myeloid cells 2
- T1 sequence: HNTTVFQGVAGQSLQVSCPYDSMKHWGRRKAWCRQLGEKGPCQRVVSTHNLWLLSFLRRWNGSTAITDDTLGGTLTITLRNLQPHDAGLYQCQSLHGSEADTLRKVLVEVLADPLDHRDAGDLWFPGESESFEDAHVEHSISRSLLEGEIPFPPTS
- PROTOCOL NOTES: 1st screen (110 nM or 10 nM)
QUANTITY NAME: Binding Signal (fold over 6E7 Parental antibody) (fold)

• V27 (antibody, V domains shown) VH: EVQLVQSGAEVKKPGESLKISCKGSGYSFTSYWIAWVRQMPGKGLEWMGIIYPGDSDTRYAPSFQGQVTISADKSISTAYLQWSSLKASDTAMYFCVRSRTFYYDSSDYFDYWGQGTLVTVSS VL: DIQMTQSPSSVSASVGDRVTITCRASQGISSWLAWYQQKPGKAPKLLIYAASSLQRGVPSRFSGSGSGTDFTLTISSLQPEDFATYFCQQADSFPRTFGQGTKLEIK = 5.5
• V28 (antibody, V domains shown) VH: EVQLVQSGAEVKKPGESLKISCKGSGYSFQSYWIAWVRQMPGKGLEWMGTIYPGDSDTRYSPSFQGQVTISADKSISTAYLQWSSLKASDTAMYFCARQRTFFYDSSDYFDYWGQGTLVTVSS VL: DIQMTQSPSSVSASVGDRVTITCRASQGISSWLAWYQQKPGKAPKLLIYAASSLQSGVPSRFSGSGSGTDFTLTISSLQPEDFATYFCQQADSLPRTFGQGTKLEIK = 3.08
• V66 (antibody, V domains shown) VH: EVQLVQSGAEVKKPGESLKISCKGSGTSFTSYWIAWVRQMPGKGLEWMGIIYPGDSDTRYSPSFQGQVTISADKSISTAYLQWSSLKASDTAMYFCARQRTFYYDSSDYFDYWGQGTLVTVSS VL: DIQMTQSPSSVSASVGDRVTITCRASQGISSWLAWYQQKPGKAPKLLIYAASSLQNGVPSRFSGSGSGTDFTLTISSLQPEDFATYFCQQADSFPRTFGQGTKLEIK = 0.25
• V65 (antibody, V domains shown) VH: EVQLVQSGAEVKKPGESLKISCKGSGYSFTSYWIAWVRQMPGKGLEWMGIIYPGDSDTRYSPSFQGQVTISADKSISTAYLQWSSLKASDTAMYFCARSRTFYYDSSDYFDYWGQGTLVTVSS VL: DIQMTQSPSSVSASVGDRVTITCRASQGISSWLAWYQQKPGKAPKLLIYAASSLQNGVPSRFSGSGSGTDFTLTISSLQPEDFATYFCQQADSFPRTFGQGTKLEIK = 2.05
• V58 (antibody, V domains shown) VH: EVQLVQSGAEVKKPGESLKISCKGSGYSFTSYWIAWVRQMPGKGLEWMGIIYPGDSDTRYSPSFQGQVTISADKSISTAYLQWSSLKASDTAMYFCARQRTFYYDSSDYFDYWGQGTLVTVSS VL: DIQMTQSPSSVSASVGDRVTITCRASQGISSWLAWYQQKPGKAPKLLIYKASSLQNGVPSRFSGSGSGTDFTLTISSLQPEDFATYFCQQADSFPRTFGQGTKLEIK = 0.28
